- Target System: rat EP4 receptor (Rattus norvegicus)
- Sequence (P43114 whole entry): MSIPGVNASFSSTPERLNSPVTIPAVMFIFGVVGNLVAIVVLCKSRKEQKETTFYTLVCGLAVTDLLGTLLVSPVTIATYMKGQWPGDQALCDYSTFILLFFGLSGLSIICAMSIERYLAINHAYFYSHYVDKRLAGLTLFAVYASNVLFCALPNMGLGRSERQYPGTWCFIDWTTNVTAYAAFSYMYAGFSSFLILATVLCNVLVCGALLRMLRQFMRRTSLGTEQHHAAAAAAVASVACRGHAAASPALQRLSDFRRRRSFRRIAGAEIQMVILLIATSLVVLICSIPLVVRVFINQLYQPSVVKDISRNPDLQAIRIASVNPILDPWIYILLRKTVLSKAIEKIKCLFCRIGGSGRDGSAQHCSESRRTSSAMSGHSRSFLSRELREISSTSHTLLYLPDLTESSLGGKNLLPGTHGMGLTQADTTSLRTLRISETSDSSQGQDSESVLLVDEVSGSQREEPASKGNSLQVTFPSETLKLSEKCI
Result Type: log10 of Ki (log10 of the value in nM)
All values: base-10 log of Ki in nM.

## Task Which measured log10 of Ki value corresponds to `C[C@H](NC(=O)c1cccc2ccn(Cc3ccc4ccccc4n3)c12)c1ccc(C(=O)O)cc1` ?
## Result 0.20

## Task Sample `CN(NC(=O)c1cccc2ccn(Cc3ccc(Cl)cc3)c12)c1ccc(C(=O)O)cc1` — what was its log10 of Ki?
## Result -0.10

## Task Can you share its log10 of Ki? I mean this molecule: `C[C@H](NC(=O)c1ccccc1-n1ccc2cc(Cl)ccc21)c1ccc(C(=O)O)cc1`
## Result 1.18

## Task What log10 of Ki value was documented for this molecule, `C[C@H](NC(=O)c1cccc2nc(Nc3ccc(Cl)cc3)oc12)c1ccc(C(=O)O)cc1` ?
## Result 1.04

## Task For the molecule `C[C@H](NC(=O)c1cccc2cnn(Cc3ccc(Cl)cc3)c12)c1ccc(C(=O)O)cc1` , what log10 of Ki is on record?
## Result 0.74

## Task Suppose we examine the molecule `C[C@H](NC(=O)c1cccc2ccn(Cc3ccc(Cl)cc3)c12)c1ccc(-c2noc(=O)[nH]2)cc1` ; what log10 of Ki value has been reported?
## Result 0.54

Data origin, for the record: patent US20110028463A1
